The origin of these recorded values is patent US20250171437A1.

Molecular target: human PAH with the R408W mutation (A375 R408W cells) (Homo sapiens, UniProt P00439, R408W)
Construct: expressed in transfected cells
Assay: Cell Based Phenylalanine Flux Assay
Conditions: A375 R408W cells; 24 hrs with compound, then 20 μM sepiapterin and 800 μM 13C9,15N-Phenylalanine for 4 hours; 13C-Tyrosine by LC-MS; average where tested multiple times
measurementKind: AC50

The molecule Cn1cnc(-c2nc(C(F)F)c(C(=O)N3CCc4[nH]cnc4[C@@H]3c3nc4cccc(F)c4o3)o2)c1 [Example 891] showed AC50 equal to 1000 to 5000 nM

The molecule Cn1cc(-c2nnc(C(=O)N3CCc4[nH]cnc4[C@H]3c3nc4cc(F)ccc4o3)o2)cn1 [Example 67] showed AC50 equal to 1000 to 5000 nM

We now examine a further molecule.
The molecule O=C(c1cnn2cc(N3CCC(F)CC3)ccc12)N1CCc2[nH]cnc2[C@@H]1c1nc2cccc(F)c2o1 [Example 370] showed AC50 equal to 1000 to 5000 nM

====

Here the recorded AC50 is given for each entry.
Target: human PAH with the R408W mutation (A375 R408W cells) (Homo sapiens, UniProt P00439, R408W)
Construct: expressed in transfected cells
Sequence (P00439 1-452 R408W): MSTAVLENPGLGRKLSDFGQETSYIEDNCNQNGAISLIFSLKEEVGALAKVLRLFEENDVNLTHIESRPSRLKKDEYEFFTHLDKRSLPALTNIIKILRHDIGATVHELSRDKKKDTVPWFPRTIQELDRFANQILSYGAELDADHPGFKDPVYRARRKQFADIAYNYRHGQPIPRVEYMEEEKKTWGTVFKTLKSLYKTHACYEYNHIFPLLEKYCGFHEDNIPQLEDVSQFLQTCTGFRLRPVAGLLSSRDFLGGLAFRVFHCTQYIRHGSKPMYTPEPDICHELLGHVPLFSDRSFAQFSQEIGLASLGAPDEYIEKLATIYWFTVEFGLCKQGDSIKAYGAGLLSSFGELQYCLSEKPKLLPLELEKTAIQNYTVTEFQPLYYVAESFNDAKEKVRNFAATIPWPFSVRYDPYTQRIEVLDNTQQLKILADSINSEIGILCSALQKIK
Assay: Cell Based Phenylalanine Flux Assay
Settings: A375 R408W cells; 24 hrs with compound, then 20 μM sepiapterin and 800 μM 13C9,15N-Phenylalanine for 4 hours; 13C-Tyrosine by LC-MS; average where tested multiple times

Past entries and their recorded results:
The compound "O=C(c1cnn2cc(N3CCOCC3)ccc12)N1CCc2[nH]cnc2[C@@H]1c1nc2cccc(F)c2o1" showed AC50 equal to 1000 to 5000 nM

The compound "O=C(c1oc(C2(O)CCC2)nc1C(F)(F)F)N1CCc2[nH]cnc2[C@H]1c1nc2cc(F)ccc2o1" showed AC50 equal to ≤ 500 nM

The compound "Cn1cc(-c2nnc(C(=O)N3CCc4[nH]cnc4[C@H]3c3nc4cc(F)ccc4o3)o2)c(C(F)(F)F)n1" showed AC50 equal to ≤ 500 nM

The compound "O=C(c1ocnc1C(F)F)N1CCc2[nH]cnc2[C@@H]1c1nc2cccc(F)c2o1" showed AC50 equal to ≤ 500 nM

Next:
The compound "CN(C)CCc1ccc2c(C(=O)N3CCc4[nH]cnc4[C@H]3c3nc4cc(F)ccc4o3)cnn2c1" showed AC50 equal to 1000 to 5000 nM

The compound "O=C(c1cnn(CC(F)(F)F)c1C(F)F)N1CCc2[nH]cnc2[C@H]1c1nc2cc(F)ccc2o1" showed AC50 equal to 500 to 1000 nM

The compound "Cn1nc(C(F)F)nc1C(=O)N1CCc2[nH]cnc2[C@H]1c1nc2c(F)ccc(F)c2o1" showed AC50 equal to 500 to 1000 nM
